Below, each entry is listed with its recorded IC50 IL-2, whole blood Donor A, recombinant mAb.
# measurement-target: human Orai1 (human, UniProt Q96D31 1-301)
# Sequence (Q96D31 whole entry): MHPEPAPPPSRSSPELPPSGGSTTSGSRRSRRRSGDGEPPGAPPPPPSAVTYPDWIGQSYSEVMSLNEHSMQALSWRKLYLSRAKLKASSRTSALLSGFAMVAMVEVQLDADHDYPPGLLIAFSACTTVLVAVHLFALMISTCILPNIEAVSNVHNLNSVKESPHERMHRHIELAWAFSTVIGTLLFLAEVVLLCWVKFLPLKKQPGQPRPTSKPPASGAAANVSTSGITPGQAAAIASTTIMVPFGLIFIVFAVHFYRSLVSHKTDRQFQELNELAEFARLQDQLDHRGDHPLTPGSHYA
# procedure-details: cell-based or functional assay
Give just the numeric value; nM need not be written.

Examples with their reported IC50 IL-2, whole blood Donor A, recombinant mAb follow.
[
  {
    "binder": "mAb 5H3.1 (antibody, human IgG2, lambda, V domains shown, fully human IgG2 lambda, Campaign 2, recombinant) VH: QVQLVQSGAEVKKPGASVKVSCKASGYTFTDYYMNWVRQAPGQGLEWMGWINPNSGGTKYAQKFQGRVTMTRDTSIRTAYMELSRLRSDDTAVYYCAREYGGNSDWFDPWGQGTLVTVSS VL: QSVLTQPPSVSGAPGQRVTISCTGSSSNIGAGYDVHWYQQLPGTAPKLLIYGNSNRPSGVPDRFSGSKSGTSASLAITGLQAEDEADYYCQSYDNRLSDSVVIGGGTKLAVQG",
    "unit-tag": "nM",
    "numeric-readout": 0.87
  },
  {
    "binder": "mAb 5D7.2 (antibody, human IgG2, lambda, V domains shown, fully human IgG2 lambda, Campaign 2, recombinant) VH: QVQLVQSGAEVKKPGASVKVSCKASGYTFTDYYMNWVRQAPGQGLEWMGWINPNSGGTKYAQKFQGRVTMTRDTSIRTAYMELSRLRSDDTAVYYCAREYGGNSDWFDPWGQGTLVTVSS VL: QSVLTQPPSVSGAPGQRVTISCTGSSSNIGAGYDVHWYQQSPGTAPKLLIYGNSNRPSGVPDRFSGSKSGTSASLAITGLQAEDEADYYCQSYDNRLSDSVVIGGGTKLTVQG",
    "unit-tag": "nM",
    "numeric-readout": 3.17
  },
  {
    "binder": "mAb 5B1.1 (antibody, human IgG2, lambda, V domains shown, fully human IgG2 lambda, Campaign 2; also called mAb 5Bl1.1) VH: QVQLVQSGAEVKKPGASVKVSCKASGYTFTDYYINWVRQAPGQGLEWMGWINPNSGGSSYAQKFQGRVTMTRDTSISTAHMELIRLRSDDTAVYYCARERGGIEDWFDPWGQGTLVTVSS VL: QSVLTQPPSVSGAPGQRVTISCTGSSSNIGAGYDVHWYQQLPGTAPKLLIYGNSNRPSGVPDRFSGSKSGTSASLAITKFQAEDEAVYYCQSYGSGLSGVVFGGGTKLTVLG",
    "unit-tag": "nM",
    "numeric-readout": 2.08
  },
  {
    "binder": "mAb 5B5.1 (antibody, human IgG2, lambda, V domains shown, fully human IgG2 lambda, Campaign 2, recombinant; same chains as 5B5.2) VH: QVQLVQSGAEVKKPGASVKVSCKASGYTFTDYYINWVRQAPGQGLEWMGWINPNSGGTDYAQKFQGRVTMTRDTSIRTAYMELNRLTSDDTAVYYCAREYGGYEDWFDPWGQGTLVTVSS VL: QSVLTQPPSVSGAPGQRVTISCTGSNSNIGAGFDVHWYQQLPGTVPKLLIYGNNNRPSGVPDRFSGSKSGTSASLAITGLQAEDEADYYCQSYDSRLTVFGGGTKLTVLG",
    "unit-tag": "nM",
    "numeric-readout": 1.34
  },
  {
    "binder": "mAb 5A4.2 (antibody, human IgG2, lambda, V domains shown, fully human IgG2 lambda, Campaign 2) VH: QVQLVQSGAEVKKPGASVKVSCKASGYTFTDYYMNWVRQAPGQGLEWMGWINPNSGGTKYAQKFQGRVTMTRDTSIRTAYMELSRLRSDDTAVYYCSREYGGNSDWFDPWGQGTLVTVSS VL: QSVLTQPPSVSGAPGQRVTISCTGSSSNIGAGYDVHWYQQLPGTAPKLLIYGNSNRPSGVPDRFSGSKSGTSASLAITGLQAEDEADYYCQSYDNRLSDSVVIGGGTKLTVQG",
    "unit-tag": "nM",
    "numeric-readout": 1.42
  }
]

[Q] Requested read-out: IC50 IL-2, whole blood Donor A, recombinant mAb. Entry: mAb 5F2.1 (antibody, human IgG2, lambda, V domains shown, fully human IgG2 lambda, Campaign 2) VH: QVQLVQSGAEVKKPGASVKVSCKASGYTFTDYYMNWVRQAPGQGLEWMGWINPNSGGTHYAQKFQGRVTMTRDTSISTAYMELSRLRSDDTAVYYCAREYGGYSDWFDPWGQGTLVTVSS VL: QSVLTQPPSVSGAPGQRVTISCTGSRSNIGAGYDVHWYQQLPRTAPKLLIYDNSNRPSGVPDRFSGSKSGSSASLAITGLQAEDEADYYCQSYDNSLSDSVLIGGGTKLTVLG
[A] 2.42
